# assayedSystem: rat GST-tagged AR-LBD (Rattus norvegicus, UniProt P15207)
# Construct: purchased Invitrogen
# Sequence (P15207 651-882 limits assumed): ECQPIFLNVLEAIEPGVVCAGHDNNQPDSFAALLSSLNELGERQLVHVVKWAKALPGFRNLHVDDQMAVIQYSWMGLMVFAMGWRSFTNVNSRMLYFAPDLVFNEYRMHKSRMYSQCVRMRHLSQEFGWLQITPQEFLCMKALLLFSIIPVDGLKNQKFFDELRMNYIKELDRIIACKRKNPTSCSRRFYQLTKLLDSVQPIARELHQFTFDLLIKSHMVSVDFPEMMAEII
# experiment: LanthaScreen TR-FRET AR Binding Assay
# measurementConditions: n = 2; 12-point concentration response up to 100 μM
property: IC50

smilesText | IC50
Cn1nccc1CCOc1ccc(C2CCN(c3ccc4nnc(C(F)(F)F)n4n3)CC2)cc1 | 1.3 µM

Here's the next entry for you.
Query block: Returns the measured IC50 for the input molecule. Input: "OC1(c2cccnc2)CCN(c2ccc3nnc(C(F)(F)F)n3n2)CC1"
Result block: > 100 µM

###

# assayedSystem: Androgen Receptor (AR) (Homo sapiens, UniProt P10275, T878A)
# Construct: cell based immuno-fluorescence assay using the LNCaP prostate epithelial cell line; endogenous in cells; host or cells: LNCaP clone FGC (ATCC CRL-1740)
# Sequence (P10275 1-920 T878A): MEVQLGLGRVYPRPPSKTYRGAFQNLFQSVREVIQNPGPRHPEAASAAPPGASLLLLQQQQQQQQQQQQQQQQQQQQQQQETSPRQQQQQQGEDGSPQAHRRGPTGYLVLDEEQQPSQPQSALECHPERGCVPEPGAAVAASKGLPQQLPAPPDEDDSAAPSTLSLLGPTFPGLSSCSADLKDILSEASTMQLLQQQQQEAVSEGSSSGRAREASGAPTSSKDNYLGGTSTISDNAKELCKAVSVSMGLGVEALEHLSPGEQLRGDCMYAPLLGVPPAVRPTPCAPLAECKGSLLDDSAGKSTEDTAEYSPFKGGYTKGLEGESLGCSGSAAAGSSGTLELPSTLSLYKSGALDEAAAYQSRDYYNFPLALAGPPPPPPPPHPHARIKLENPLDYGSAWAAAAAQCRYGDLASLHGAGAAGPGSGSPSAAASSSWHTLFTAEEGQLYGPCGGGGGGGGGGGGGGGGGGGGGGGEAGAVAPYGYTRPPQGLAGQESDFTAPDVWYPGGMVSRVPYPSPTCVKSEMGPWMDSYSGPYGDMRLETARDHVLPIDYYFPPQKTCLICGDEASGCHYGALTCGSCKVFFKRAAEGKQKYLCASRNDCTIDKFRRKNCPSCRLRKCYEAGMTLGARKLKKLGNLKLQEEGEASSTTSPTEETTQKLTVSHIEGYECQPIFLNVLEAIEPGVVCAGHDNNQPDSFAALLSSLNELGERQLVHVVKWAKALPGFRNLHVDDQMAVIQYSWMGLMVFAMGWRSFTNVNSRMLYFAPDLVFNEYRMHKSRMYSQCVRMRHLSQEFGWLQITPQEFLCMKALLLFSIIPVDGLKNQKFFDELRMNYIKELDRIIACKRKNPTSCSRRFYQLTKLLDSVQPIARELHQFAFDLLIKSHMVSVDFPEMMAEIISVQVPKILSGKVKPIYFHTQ
# experiment: LNCaP Androgen Receptor Down-regulation Cell Assay (immunofluorescence end point)
# Type: cell-based
# measurementConditions: LNCaP prostate carcinoma cells, compound incubation 20-22 hours, 50% reduction of the AR signal; read-out: Androgen Receptor Down-regulation Assay (a) IC50/μM
# Experimental: The ability of compounds to reduce Androgen Receptor (AR) numbers was assessed in a cell based immuno-fluorescence assay using the LNCaP prostate epithelial cell line. a) LNCaP Androgen Receptor Down-regulation Cell Assay […] Immunostaining was performed at room temperature. […] Then 50 μl of PBST was added to each well and plates were covered with a black plate seal and stored at 4° C. before being read. Plates were read within six hours of completing the immunostaining. […]
property: log10(DC50) (log10 of the value in µM)
Kindly note that the scale is log10 and the underlying DC50 is in µM.

Sample records with log10(DC50):
molecule | log10(DC50)
FC(F)(F)c1nnc2ccc(N3CCN(CCc4ccccc4)CC3)nn12 [Example 23] | -0.35
O=C1CCc2ccccc2N1C1CCN(c2ccc3nnc(C(F)(F)F)n3n2)CC1 [Example 40] | 0.52
N#Cc1ccc(CN2CC3CN(c4ccc5nnc(C(F)(F)F)n5n4)CC3C2)cn1 (stereo not drawn) [Example 837] | 0.20
FC(F)(F)c1nnc2ccc(N3CCC(COCC4CC4)CC3)nn12 [Example 295] | 0.53
FC(F)(F)Oc1ccc(CN2CCN(c3ccc4nnc(C(F)(F)F)n4n3)CC2)cc1 [Example 131] | 0.61

Consider now this further molecule.
Query block: // lookup log10(DC50) for N#Cc1cccc(CN2CC3CN(c4ccc5nnc(C(F)(F)F)n5n4)CC3C2)c1 (stereo not drawn) [Example 197]
Result block: -0.09
